MIC reference
- System: Mycobacterium tuberculosis
- TEST: Antitubercular activity against Mycobacterium tuberculosis H37Rv by microdilution resazurin assay
- Format: functional

| CHEMICAL STRUCTURE | MIC |
| --- | --- |
| CC1CCN(Cn2nc(-c3cccnc3)oc2=O)CC1 | > 64 µg/mL |
| O=c1[nH]nc(-c2cnccn2)o1 | > 64 µg/mL |
| O=c1oc(-c2cnccn2)nn1CN1CCCCC1 | > 64 µg/mL |

###

- System: Mycobacterium tuberculosis
- TEST: Antitubercular activity against Mycobacterium tuberculosis H37Rv by microdilution resazurin assay
- Type: functional
METRIC: log10(MIC) (log10 of the value in µg/mL)

| COMPOUND | TARGET | METRIC | MEAS VALUE |
| --- | --- | --- | --- |
| CO[C@H]1/C=C/O[C@@]2(C)Oc3c(C)c(O)c4c(O)c(c(/C=N/N5CCN(C)CC5)c(O)c4c3C2=O)NC(=O)/C(C)=C\C=C\[C@H](C)[C@H](O)[C@@H](C)[C@@H](O)[C@@H](C)[C@H](OC(C)=O)[C@@H]1C | Mycobacterium tuberculosis | log10(MIC) | 0.00 |
| CN(Cc1ccccc1Cl)Cn1nc(-c2ccncc2)oc1=O | Mycobacterium tuberculosis | log10(MIC) | 0.90 |
| O=c1oc(-c2ccccc2)nn1CN1CCCCC1 | Mycobacterium tuberculosis | log10(MIC) | 1.51 |
| CC1CCN(Cn2nc(-c3ccccc3)oc2=O)CC1 | Mycobacterium tuberculosis | log10(MIC) | 1.51 |
| NNC(=O)c1ccncc1 | Mycobacterium tuberculosis | log10(MIC) | -0.30 |
| O=c1[nH]nc(-c2ccncc2)o1 | Mycobacterium tuberculosis | log10(MIC) | 0.60 |
| CN(Cc1ccc(F)cc1)Cn1nc(-c2ccncc2)oc1=O | Mycobacterium tuberculosis | log10(MIC) | 0.60 |
| CN(Cc1ccccc1Br)Cn1nc(-c2ccncc2)oc1=O | Mycobacterium tuberculosis | log10(MIC) | 0.90 |
| CN(Cc1cccc(F)c1)Cn1nc(-c2ccncc2)oc1=O | Mycobacterium tuberculosis | log10(MIC) | 0.90 |
| CN(Cc1ccc(Br)cc1)Cn1nc(-c2ccncc2)oc1=O | Mycobacterium tuberculosis | log10(MIC) | 0.60 |
| CC1CCCN(Cn2nc(-c3cccnc3)oc2=O)C1 (configuration not stated) | Mycobacterium tuberculosis | log10(MIC) | 1.51 |
| O=c1oc(-c2cccnc2)nn1CN1CCCCC1 | Mycobacterium tuberculosis | log10(MIC) | 1.51 |
| CC1CCN(Cn2nc(-c3ccccn3)oc2=O)CC1 | Mycobacterium tuberculosis | log10(MIC) | 0.60 |
| CN(Cc1cccc(Cl)c1)Cn1nc(-c2ccncc2)oc1=O | Mycobacterium tuberculosis | log10(MIC) | 0.90 |
| CC1CCCN(Cn2nc(-c3ccccc3)oc2=O)C1 (configuration not stated) | Mycobacterium tuberculosis | log10(MIC) | 1.51 |
